Reference source: PubChem BioAssay AID588780

# Tested on: H9c2 cardiomyocytes, 2-deoxyglucose stress, ATP luminescence, 2 h
# Assay Procedure: H9c2 cell survival under 2-deoxyglucose stress – uHTS hits, dose response (AID 588780)
Activity calls are given as the source filed them.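 Rule for the calls: active = compounds whose fitted half-maximal concentration in the cell-protection dose series is at or below a set limit; inactive = the rest.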
Form entry, call: pick from active, inactive

Examples from the recorded data:
> print(dat)
                                   compound  discrete.label
1  CCC(C)N1C(=O)S/C(=C/c2ccc3c(c2)n(C)c(=O)n3C)C1=O (centres undefined)        inactive
2  COc1ccc(-c2cc(C(=O)NC(C)c3ccccn3)c3ccccc3n2)cc1OC (centres undefined)          active
3  O=C(Oc1ccc(N(Cc2cccs2)C2=NS(=O)(=O)c3ccccc32)cc1)c1ccccc1Cl        inactive

Okay, now this compound:
# input Look up the recorded call for `CCN1C(=O)/C(=C/c2nc3ccccc3c(=O)[nH]2)c2ccccc21` in this test.
# output inactive

----------
# Test system: H9c2 cardiomyocytes, 2-deoxyglucose stress, ATP luminescence, 2 h
# Assay Procedure: H9c2 cell survival under 2-deoxyglucose stress – uHTS hits, dose response (AID 588780)
Calls of active or inactive are those of the source.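 How the source made its calls: active means compounds whose fitted half-maximal concentration in the cell-protection dose series is at or below a set limit; inactive means the rest.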
Parameter call: string, one of active, inactive

> print(dat)
                                   molecule  discrete.label
1  Cc1cccc(C(C)C)c1NC(=O)C(C)OC(=O)Cc1n[nH]c(=O)c2ccccc12 (stereo not drawn)        inactive
2  Cc1ccc2cc(C#N)c(N3CCN(C(=O)c4cccs4)CC3)nc2c1        inactive
3  CCOc1ccc(NC(=O)c2cc3c(=O)n(C)c4ccccc4c3n2C)cc1          active
4  CN(CC1COc2ccccc2O1)c1nc(-c2cccnc2)nc2ccccc12 (stereo not drawn)        inactive
5  COc1cccc(/C=N/NC(=O)c2[nH]c(C)c(C(=O)N/N=C/c3cccc(OC)c3)c2C)c1          active

# input Short answer needed: outcome of this test for CCOc1ccccc1NC(=O)c1oc2ccccc2c1NC(=O)C1CCCO1 (stereo not drawn) ?
# output active

# input Called result for O=C1c2ccccc2NC(c2ccc(-c3ccc(Br)cc3)o2)N1O (stereo not drawn)
# output active

# input For this molecule, state the assay outcome: COc1ccc(OC)c(C2CC(=O)c3c([nH]c(C(=O)OCC4CCCO4)c3C)C2)c1 (stereo not drawn)
# output inactive

----------
# System: H9c2 cardiomyocytes, 2-deoxyglucose stress, ATP luminescence, 2 h
# Assay Procedure: H9c2 cell survival under 2-deoxyglucose stress – uHTS hits, dose response (AID 588780)
Calls of active or inactive are those of the source.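 Rule for the calls: active = compounds whose fitted half-maximal concentration in the cell-protection dose series is at or below a set limit; inactive = the rest.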
# output must be one of yes (1) (active), no (0) (inactive)

Example entries and their recorded answers appear below.
> print(dat)
                                   molecule  discrete.label
1  CCOc1cc(/C=C(\C#N)C(=O)Nc2ccc(S(N)(=O)=O)cc2)ccc1OCCN1CCOCC1          no (0)
2  CC(C)(C)NC(=O)c1cc(NC(=O)c2cccs2)cc(NC(=O)c2cccs2)c1          no (0)

# input Please indicate how the test categorized CCc1ccc(C(C)NC(=O)c2cc(C)oc2C)cc1 (configuration not stated) .
# output no (0)

# input For this molecule, state the assay outcome: `CCOC(=O)CSc1nc2ccccc2c(=O)[nH]1`
# output no (0)

# input # fetch the recorded call for `COc1cc(NC(=O)c2ccco2)c(OC)cc1NC(=O)c1cc(OC)c(OC)c(OC)c1` here
# output no (0)

# input Per the assay record, what outcome was assigned to `O=C(Nc1ccc2nc(N3CCOCC3)sc2c1)c1cc2ccccc2o1` ?
# output no (0)

# input Assay outcome for `Oc1c(Br)cc(Br)cc1C=Nc1ccc2c(c1)OCCO2` : what was it?
# output yes (1)

# input Look up the recorded call for `O=C(CN1CCCCC1)Nc1nc(-c2ccc(F)c(F)c2)cs1` in this test.
# output no (0)

# input Could you please tell me the result logged for `Cc1cc(C)c(S(=O)(=O)N2CCN(C(=O)c3cc(=O)[nH]c4ccccc34)CC2)c(C)c1` in this assay?
# output yes (1)

# input In this assay, the call recorded for O=C(Cn1[nH]c(=O)c2ccccc2c1=O)NCC1COc2ccccc2O1 (configuration not stated) was what?
# output no (0)

# input Just curious, what result did `Cc1cc(NC(=O)COC(=O)COc2ccc3c4c(c(=O)oc3c2)CCC4)no1` get here?
# output no (0)

# input Kindly provide the recorded test outcome for the following molecule: `N#C/C(=C\c1cn(-c2ccccc2)nc1-c1cccnc1)c1nnc2n1CCCCC2`
# output yes (1)

----------
# System: H9c2 cardiomyocytes, 2-deoxyglucose stress, ATP luminescence, 2 h
# Assay Procedure: H9c2 cell survival under 2-deoxyglucose stress – uHTS hits, dose response (AID 588780)
Calls of active or inactive are those of the source.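 Rule for the calls: active = compounds whose fitted half-maximal concentration in the cell-protection dose series is at or below a set limit; inactive = the rest.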
Write down one outcome, taken from YES = active, NO = inactive

Observe how each entry below is paired with its result.
> print(dat)
                                   compound  discrete.label
1  Fc1ccc(-n2cc(-c3ccccc3)c3c(N4CCOCC4)ncnc32)cc1              NO
2  CC(=O)Nc1cc(-c2cccc(NS(C)(=O)=O)c2)cn2c(-c3cccc(C(C)=O)c3)cnc12              NO
3  CC(OC(=O)Cn1[nH]c(=O)c2ccccc2c1=O)C(=O)NC1(C#N)CCCCC1 (configuration not stated)              NO
4  COc1ccccc1NC(=O)CSc1ccc2nnc(-c3ccc(C)cc3)n2n1              NO
5  CCCCn1c(=NC(=O)c2cccnc2)c(C#N)cc2c(=O)n3cccc(C)c3nc21              NO

# input GET /call?item= COc1ccc2[nH]c(=O)c(CN(CC3CCCO3)S(=O)(=O)c3ccccc3F)cc2c1 (configuration not stated) returns the recorded outcome of this test.
# output YES

# input Test call, this compound: `COc1cc(-c2cc(C(=O)OCC(=O)NC3CC3)c3ccccc3n2)cc(OC)c1OC`
# output YES

# input Field: outcome | Entry: `COc1ccccc1NC(=O)COc1ccc(C(=O)OCC(=O)NC(C)(C)C)cc1OC`
# output YES

# input Record lookup: outcome of this test for `NC(=O)c1oc2ccccc2c1NC(=O)c1ccco1` ?
# output YES

# input For this compound, state the assay outcome: `Fc1ccc(-c2ccc(-c3nn4c(-c5ccco5)nnc4s3)o2)cc1`
# output NO

----------
# Tested on: H9c2 cardiomyocytes, 2-deoxyglucose stress, ATP luminescence, 2 h
# Assay Procedure: H9c2 cell survival under 2-deoxyglucose stress – uHTS hits, dose response (AID 588780)
Calls of active or inactive are those of the source.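 How the source made its calls: active means compounds whose fitted half-maximal concentration in the cell-protection dose series is at or below a set limit; inactive means the rest.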
Pick one: active, inactive

Past entries and their recorded results:
> print(dat)
                                   compound                             target.system  discrete.label
1  COc1ccc(N2CC(C(=O)NCc3n[nH]c(=O)c4ccccc34)CC2=O)cc1 (centres undefined)  H9c2 cardiomyocytes, 2-deoxyglucose stress, ATP luminescence, 2 h        inactive
2  COc1cc(NC(=O)c2cc3nc(-c4ccccc4)cc(-c4ccccc4)n3n2)cc(OC)c1OC  H9c2 cardiomyocytes, 2-deoxyglucose stress, ATP luminescence, 2 h        inactive
3  Cc1cc(C)c(OCC(=O)Nc2nc(-c3ccccn3)cs2)c(C)c1  H9c2 cardiomyocytes, 2-deoxyglucose stress, ATP luminescence, 2 h        inactive
4  COC(=O)/C=C/c1ccc(OC(=O)OC)c(OC(=O)OC)c1  H9c2 cardiomyocytes, 2-deoxyglucose stress, ATP luminescence, 2 h        inactive
5  CCc1nc(N2CCN(C(=O)c3ccco3)CC2)c2oc3ccccc3c2n1  H9c2 cardiomyocytes, 2-deoxyglucose stress, ATP luminescence, 2 h        inactive
6  COc1cc(NC(=O)c2cc3ccccc3cc2OC)ccc1NC(=O)c1cccs1  H9c2 cardiomyocytes, 2-deoxyglucose stress, ATP luminescence, 2 h        inactive

# input What was the test verdict on `COc1ccc(N(CC(=O)NCCSc2ccccc2)S(=O)(=O)c2ccccc2)c(OC)c1` ?
# output active

# input For `COc1cc(OC)cc(C(=O)NNC(=O)CCc2nc3ccccc3c(=O)[nH]2)c1` , what call appears in the results of this test?
# output inactive

# input Which outcome did this test record for the compound `Brc1ccc(-c2ccc(/C=N/Nc3nc(N4CCOCC4)nc(N4CCOCC4)n3)o2)cc1` ?
# output inactive

# input # lookup: test call for `Fc1ccc(CSc2ccc3nnc(-c4cccnc4)n3n2)cc1`
# output active

# input Call for entry `COCCn1ccc2c(OCC(=O)Nc3ccccc3OC)cccc2c1=O` :
# output active

# input Kindly provide the recorded test outcome for the following compound: `O=C(Nc1ccc2c(c1)OCO2)c1cnn2c(C(F)(F)F)cc(-c3ccco3)nc12`
# output active

# input # outcome recorded in this test, key = `CCOC(=O)N1CCC(NC(=O)c2cc3c(-c4ccccc4F)nn(C)c3s2)CC1`
# output inactive
